Recorded Mean % WT Binding values for a group of binders are listed next.
# TESTED_ON: human CD33 L153A (human, UniProt P20138 18-364)
# Sequence (P20138 18-364 L153A limits assumed): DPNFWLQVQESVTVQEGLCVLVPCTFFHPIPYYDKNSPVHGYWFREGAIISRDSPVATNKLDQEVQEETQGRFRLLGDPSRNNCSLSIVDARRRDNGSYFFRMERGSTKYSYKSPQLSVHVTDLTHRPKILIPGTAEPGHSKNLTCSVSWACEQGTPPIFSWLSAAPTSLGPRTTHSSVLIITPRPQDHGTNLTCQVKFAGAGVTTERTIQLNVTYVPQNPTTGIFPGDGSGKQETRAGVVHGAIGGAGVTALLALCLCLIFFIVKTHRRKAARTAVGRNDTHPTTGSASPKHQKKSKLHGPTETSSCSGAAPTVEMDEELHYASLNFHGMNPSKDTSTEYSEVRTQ
# PROTOCOL_NOTES: flow cytometry on HEK293-T, alanine scan
The reply should contain only the number, in % WT binding.

Below: 3 binders and their reported Mean % WT Binding.
- Refmab #1 (antibody, V domains shown, The alanine scan used IgG or Fab; also called hP67.6) VH: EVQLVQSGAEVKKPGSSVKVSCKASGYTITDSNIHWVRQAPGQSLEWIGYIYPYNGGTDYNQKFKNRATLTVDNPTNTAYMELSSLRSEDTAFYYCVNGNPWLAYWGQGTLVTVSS VL: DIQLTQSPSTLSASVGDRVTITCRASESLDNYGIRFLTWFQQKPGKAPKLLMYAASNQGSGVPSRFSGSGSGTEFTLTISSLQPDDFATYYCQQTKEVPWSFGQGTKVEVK: 75.7
- Refmab #2 (antibody, V domains shown, The alanine scan used IgG or Fab) VH: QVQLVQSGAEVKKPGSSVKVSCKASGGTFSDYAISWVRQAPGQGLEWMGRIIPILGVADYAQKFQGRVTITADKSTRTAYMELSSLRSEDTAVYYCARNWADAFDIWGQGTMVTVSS VL: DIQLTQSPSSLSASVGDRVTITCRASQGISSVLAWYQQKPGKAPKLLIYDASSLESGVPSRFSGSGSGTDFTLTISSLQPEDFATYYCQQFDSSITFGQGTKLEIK: 121
- Refmab #4 (antibody, V domains shown, The alanine scan used IgG or Fab) VH: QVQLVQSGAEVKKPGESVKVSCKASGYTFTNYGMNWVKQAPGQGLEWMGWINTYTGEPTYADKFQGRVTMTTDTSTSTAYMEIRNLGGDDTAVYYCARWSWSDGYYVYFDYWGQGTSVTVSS VL: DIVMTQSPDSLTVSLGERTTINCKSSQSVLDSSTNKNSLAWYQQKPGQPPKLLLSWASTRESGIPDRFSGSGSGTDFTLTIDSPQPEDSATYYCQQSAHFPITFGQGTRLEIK: 92.5

Mean % WT Binding recorded for this binder, Refmab #3 (antibody, V domains shown, The alanine scan used IgG or Fab) VH: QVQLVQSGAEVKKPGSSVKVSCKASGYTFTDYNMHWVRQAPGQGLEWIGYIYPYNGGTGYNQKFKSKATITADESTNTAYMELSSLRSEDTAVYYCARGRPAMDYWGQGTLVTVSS VL: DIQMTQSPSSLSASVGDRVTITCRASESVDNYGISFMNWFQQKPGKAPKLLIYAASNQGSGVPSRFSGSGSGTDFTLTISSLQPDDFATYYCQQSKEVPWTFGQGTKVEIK , is 144
